# protein stability index values compiled below
B1: FEM1A (parent)
chain: PCCSSSPEEPLNGESYESCCPTSR

Variants of: B1
Assay: protein stability index of a GFP-peptide fusion (GPS, HEK-293T) (PSI 1-6); higher = more stable;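 further: lentivirally expressed fusions sorted by FACS into six bins by GFP to DsRed ratio, PSI derived from sequencing read proportions per bin multiplied by bin number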
Conditions: c terminus: a fixed tail appended
Note: the reply should be a number with no unit written.

variant_annotation=C3A numeric_result=4.02
variant_annotation=C2N numeric_result=5.15
variant_annotation=C19K numeric_result=4.25
variant_annotation=G13F numeric_result=3.26
variant_annotation=L11M numeric_result=3.79
variant_annotation=E8L numeric_result=2.81
variant_annotation=S4T numeric_result=4.13
variant_annotation=R24C numeric_result=4.33

Let me know recorded protein stability index for P21T , thanks.
3.76
